// provenance: PubChem BioAssay (NCI)

# Test system: SK-MEL-2 melanoma
# assay-protocol: NCI-60 one-dose screen, 48 h (100 = growth as untreated, 0 = no growth, -100 = all killed)
# measurement-context: 10 µM unless noted
The panel holds about 83,000 compounds, 20% with a hit somewhere; the sample as a whole holds those more often.
quantity-name: growth (%)
Reply with just the number (in %).

Please review the following examples before continuing.
molecule: CN(Cc1cc(Cl)cc(Cl)c1O)Cc1cc(Cl)cc(Cl)c1O
growth (%): 93.5
--
molecule: Nc1n[nH]c2cc(F)c([C@@H]3Nc4ccc5[nH]ncc5c4[C@H]4C5CCC(C5)[C@@H]34)cc12 (stereo not given in full)
growth (%): 26.2
--
molecule: O=S(=O)(Nc1ccc(OC(F)F)cc1)c1ccc(-c2cnc(C3CC3)o2)cc1
growth (%): 63.9

Suppose we examine the molecule `C=C1C(=O)O[C@H]2[C@H]1CC/C(COC(=O)NCCc1ccc(OC)c(OC)c1)=C\CC[C@@]1(C)O[C@@H]21` ; what growth value has been reported? 83

Same again, this time with `O=CNc1ccc2c(c1)Cc1cccc(NC=O)c1-2` 106
